Provide the reported inhibition of growth at 10 µM of each item.
test-protocol: Cytotoxicity against human SW620 cells at 10 uM after 48 hrs by SRB assay
Type: functional
test-parameters: SW-620, 48 h, read-out: GI
One number for each entry, in %.

Known results for compounds:
molecular-string: Cc1nc2cc(Nc3nc(Nc4ccc(F)cc4)nc(-c4cccs4)n3)ccc2n1Cc1ccccc1
inhibition of growth at 10 µM [%]: 31.9
--
molecular-string: Cc1nc2ccc(Nc3nc(NCCN)nc(Nc4ccc(F)cc4)n3)cc2n1Cc1ccccc1
inhibition of growth at 10 µM [%]: 1.71
--
molecular-string: Cc1nc2cc(Nc3nc(NCCN)nc(Nc4ccc(F)cc4)n3)ccc2n1Cc1ccccc1
inhibition of growth at 10 µM [%]: 26.1
--
molecular-string: COc1ccc(-c2nc(Nc3ccc(F)cc3)nc(Nc3ccc4c(c3)nc(C)n4Cc3ccccc3)n2)cc1
inhibition of growth at 10 µM [%]: 54.3

Report inhibition of growth at 10 µM for each item below.
1. Cc1nc2cc(Nc3nc(Nc4ccc(F)cc4)nc(-c4ccc(Cl)cc4)n3)ccc2n1Cc1ccccc1
2. Cc1nc2cc(Nc3nc(Nc4ccc(O)cc4)nc(Nc4ccc(F)cc4)n3)ccc2n1Cc1ccccc1

result:
31.9
18.8

Report inhibition of growth at 10 µM for each item below.
1. Cc1nc2cc(Nc3nc(Cl)nc(Nc4ccc(F)cc4)n3)ccc2n1Cc1ccccc1
2. Cc1nc2ccc(Nc3nc(NCCO)nc(Nc4ccc(F)cc4)n3)cc2n1Cc1ccccc1
3. Cc1nc2cc(Nc3nc(Nc4ccc(F)cc4)nc(N4CCN(C)CC4)n3)ccc2n1Cc1ccccc1

result:
1: 15.2; 2: 0.58; 3: 84.4

---

Provide the reported TGI of each item.
System: MCF7
test-protocol: Cytotoxicity against human MCF7 cells after 48 hrs by SRB assay
Assay type: functional
test-parameters: MCF7, 48 h, pooled result: one value given for 6 cell lines, strains, targets or settings
Give bare numbers, in µM.

molecular-string: Cc1nc2cc(Nc3nc(Nc4ccc(F)cc4)nc(N4CCN(C)CC4)n3)ccc2n1Cc1ccccc1
reported-value: 3.6
//
molecular-string: Cc1nc2ccc(Nc3nc(NCCN4CCOCC4)nc(Nc4ccc(F)cc4)n3)cc2n1Cc1ccccc1
reported-value: 8.99
//
molecular-string: Cc1nc2cc(Nc3nc(Nc4ccc(F)cc4)nc(-c4ccc(Cl)cc4)n3)ccc2n1Cc1ccccc1
reported-value: 50.8
//
molecular-string: COc1ccc(-c2nc(Nc3ccc(F)cc3)nc(Nc3ccc4c(c3)nc(C)n4Cc3ccccc3)n2)cc1
reported-value: 23.4
//
molecular-string: Cc1nc2ccc(Nc3nc(Cl)nc(Nc4ccc(F)cc4)n3)cc2n1Cc1ccccc1
reported-value: 11.9

Report TGI for each item below.
1. Cc1nc2cc(Nc3nc(Nc4ccc(F)cc4)nc(N4CCCC4)n3)ccc2n1Cc1ccccc1
2. Cc1nc2cc(Nc3nc(Nc4ccc(F)cc4)nc(-c4cccs4)n3)ccc2n1Cc1ccccc1

result:
1. 4.88
2. 21.9

---

System: Calf thymus DNA
test-protocol: Binding affinity to calf thymus DNA assessed as melting temperature by spectrophotometric analysis (reference value: 60 degC)
Format: nucleic-acid assay
test-parameters: Bos taurus
measurement-label: Tm (°C)
Answers are plain numbers, in °C.

Known results for compounds:
molecular-string: Cc1nc2ccc(Nc3nc(Cl)nc(Nc4ccc(F)cc4)n3)cc2n1Cc1ccccc1
unit-string: °C
Tm: 57

molecular-string: Cc1nc2cc(Nc3nc(Nc4ccc(F)cc4)nc(N4CCN(C)CC4)n3)ccc2n1Cc1ccccc1
unit-string: °C
Tm: 65.6

Report Tm for each item below.
1. Cc1nc2cc(Nc3nc(Nc4ccc(F)cc4)nc(-c4cccs4)n3)ccc2n1Cc1ccccc1
2. Cc1nc2ccc(Nc3nc(NCCN4CCOCC4)nc(Nc4ccc(F)cc4)n3)cc2n1Cc1ccccc1

result:
1: 68.5; 2: 80.1

Report Tm for each item below.
1. COc1ccc(-c2nc(Nc3ccc(F)cc3)nc(Nc3ccc4c(c3)nc(C)n4Cc3ccccc3)n2)cc1
2. Cc1nc2cc(Nc3nc(Nc4ccc(F)cc4)nc(N4CCCC4)n3)ccc2n1Cc1ccccc1

result:
67.5
71.5
